Entries and their Urinary excretion Total F values follow.
- measurementNotes: Urinary excretion of flavanone-derived metabolites after single intake of lemon or orange extract (UPLC-ESI-QTOF-MS)
- Assay type: in vivo, human
- measurementConditions: lemon extract, sum of fractions F1-F4 (24 h), mean ± SD
The reply should contain only the number, in µg/mg creatinine.

// known answers, use as guide
O=C1CC(c2ccc(OC3OC(C(=O)O)C(O)C(O)C3O)c(O)c2)Oc2cc(O)cc(O)c21 (stereo not shown) [M4, Eriodictyol glucuronide-3]	75.1
COc1ccc(C2CC(=O)c3c(O)cc(O)cc3O2)cc1OC1OC(C(=O)O)C(O)C(O)C1O (stereo not shown) [M8, Hesperetin 3′-O-glucuronide]	24.2
O=C1CC(c2ccc(OC3OC(C(=O)O)C(O)C(O)C3O)cc2)Oc2cc(O)cc(O)c21 (stereo not shown) [M5, Naringenin 4′-O-glucuronide]	4.2
COc1ccc(C2CC(=O)c3c(O)cc(OC4OC(C(=O)O)C(O)C(O)C4O)cc3O2)cc1O (stereo not shown) [M7, Hesperetin 7-O-glucuronide]	8.5
O=C1CC(c2ccc(O)c(O)c2)Oc2cc(OC3OC(C(=O)O)C(O)C(O)C3O)cc(O)c21 (stereo not shown) [M1, Eriodictyol glucuronide-1]	18.0
O=C1CC(c2ccc(O)c(OC3OC(C(=O)O)C(O)C(O)C3O)c2)Oc2cc(O)cc(O)c21 (stereo not shown) [M2, Eriodictyol glucuronide-2]	46.6

Now consider a different compound.
Exam item: Can you look up the measured Urinary excretion Total F of O=C1CC(c2ccc(O)cc2)Oc2cc(OC3OC(C(=O)O)C(O)C(O)C3O)cc(O)c21 (stereo not shown) [M3, Naringenin 7-O-glucuronide] for me?
Marked response: 5.7
